# Test system: Trichophyton mentagrophytes
# PROCEDURE TEXT: Therapeutic experiment: treatment of trichophytosis in guinea pigs
# Assay type: in vivo
# EXPERIMENTAL CONTEXT: 1 % preparation, 0.25 ml once per day over 8 consecutive days, visual observation of diseased skin
REPORTED METRIC: Therapeutic Effect: Desquamation

COMPOUND	ASSAY VALUE
O=[N+]([O-])c1ccn(CC(I)=C(I)I)c1	effective
O=[N+]([O-])c1cn(CC(I)=C(I)I)c(Cl)c1Cl	effective
Clc1ccccc1C(c1ccccc1)(c1ccccc1)n1ccnc1 [chlotri-mazol, reference compound]	effective

----------
# EXPERIMENTAL CONTEXT: mouse, p.o., Dosage 200 mg/kg
REPORTED METRIC: Acute Toxicity (survival)

MOLECULE	REPORTED METRIC	ASSAY VALUE
O=[N+]([O-])c1cn(CC(I)=C(I)I)c(Cl)c1Cl	Acute Toxicity (survival)	All animals survived
O=[N+]([O-])c1ccn(CC(I)=C(I)I)c1 [1-(2',3',3'-triiodoallyl)-3-nitropyrrole]	Acute Toxicity (survival)	All animals survived
O=[N+]([O-])c1ccn(CC#CI)c1 [1-(1'-iodopro-pyn-3'-yl)-3-nitropyrrole, 1-(1'-iodopropyn-3'-yl)-3-nitropyrrole]	Acute Toxicity (survival)	All animals survived
O=[N+]([O-])c1cn(CC#CI)c(Cl)c1Cl	Acute Toxicity (survival)	All animals survived
